- TARGET: Purine nucleoside phosphorylase (Homo sapiens, UniProt P00491)
- Sequence (P00491 whole entry): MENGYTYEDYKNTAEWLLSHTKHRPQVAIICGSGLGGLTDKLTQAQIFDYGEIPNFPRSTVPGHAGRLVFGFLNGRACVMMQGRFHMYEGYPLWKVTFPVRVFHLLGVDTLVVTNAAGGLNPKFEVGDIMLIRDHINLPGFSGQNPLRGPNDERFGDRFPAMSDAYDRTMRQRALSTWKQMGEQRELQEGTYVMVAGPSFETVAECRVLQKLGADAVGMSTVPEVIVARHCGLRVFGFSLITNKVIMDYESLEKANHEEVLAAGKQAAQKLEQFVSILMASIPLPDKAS
- EXPERIMENT SUMMARY: Inhibition of human purine nucleoside phosphorylase by xanthine-oxidase coupled assay
pKi: −log10 of the molar value.
VALUE KIND: pKi

• O=c1[nH]cnc2c(CN3C[C@H](O)[C@@](F)(CO)C3)c[nH]c12 = 10.18

* * *

- TARGET: Purine nucleoside phosphorylase (Homo sapiens)
- EXPERIMENT SUMMARY: Inhibition of human purine nucleoside phosphorylase assessed as slow onset inhibition constant by xanthine-oxidase coupled assay
pKi: −log10 of the molar value.
VALUE KIND: pKi

• O=c1[nH]cnc2c(CN3C[C@H](O)[C@@](F)(CO)C3)c[nH]c12 = 9.30

Every entry's value here was drawn from BindingDB's records for doi:10.1021/jm800792b.
